Provide the recorded GI50 for the entries that follow.
System: EKVX
Assay: NCI tumour cell line growth inhibition, 48 h
Active and inactive are the calls of the source. Rule as the data show it: active = GI50 up to about 1.1 µM and inactive = higher.

Worked examples follow.
CCO/N=[N+](\[O-])N(CC)CC
> 100 µM (inactive)
CNc1nnc(CCCCCCCCc2nnc(NC)o2)o1
> 100 µM (inactive)
CC(C)[Si](OC1=C(C(=O)N(C)c2cccc(Cl)c2)CCCC1)(C(C)C)C(C)C
15.6 µM (inactive)
COc1cc([N+](=O)[O-])c(S(=O)(=O)O)cc1N
> 100 µM (inactive)
CN(C)c1ccc(C=C2C(=O)NC(=S)NC2=O)c2ccccc12
> 100 µM (inactive)
CC(=O)O[C@H]1CN(S(=O)(=O)c2ccc(C)cc2)C[C@@H]1C1CCCCC1
17 µM (inactive)
CNC1=Nc2ccc(Cl)cc2C(c2ccccc2)=NN1C
> 100 µM (inactive)
OCC1OC(n2cnc3c(Cl)nc(Nc4ccccc4)nc32)CC1O (configuration not stated)
2.94 µM (inactive)

Would you mind giving GI50 for every molecule in the list below?
1. Cc1cc(=O)oc2c(CNC(C)C(=O)O)c(O)ccc12 (configuration not stated)
2. O=C1c2c(ccc3c2CCC3)CC12Cc1cc3c(cc1C2)CCC3
3. COc1cc2ccc1-c1cc(ccc1O)CC1c3cc4c(cc3CCN1C)Oc1c(OC)cc3c(c1O4)C(C2)N(C)CC3 (configuration not stated)

Output:
["> 100 µM (inactive)", "> 100 µM (inactive)", "2.1 µM (inactive)"]

Task: Report value: GI50, system: EKVX, molecule: CCOc1cc2c(cc1O)/C(=N\N)C[C@@H]1[C@@H]2CC[C@]2(C)[C@@H](O)CC[C@@H]12
Output: 8.28 µM (inactive)

====

System: NCI-H23
Assay: NCI tumour cell line growth inhibition, 48 h
The source made the active and inactive calls. Rule as the data show it: active = GI50 up to about 1.1 µM and inactive = higher.
result_type: GI50

CC1(C)C2CCC(N)(C2)C1N (stereo not drawn)
> 100 µM (inactive)
CC(NC(=O)c1ccc(NP(=O)(OCc2ccc([N+](=O)[O-])o2)N(C)CCCCCl)cc1)c1ccc(OCC2CCCCC2)c(C(N)=O)c1 (stereo not drawn)
16.9 µM (inactive)
Nc1c(-c2nc3ccccc3[nH]2)sc(=S)n1-c1ccccc1
> 100 µM (inactive)
O=C1c2c(ccc3c2CCC3)CC12Cc1cc3c(cc1C2)CCC3
> 100 µM (inactive)
c1ccc(-c2ccc(/N=N/N3CCCC3)cc2)cc1
> 100 µM (inactive)

Hi! Can you tell me GI50 for each of these molecules?
1. Nc1ncnc2c1nnn2C1C=CC(CP(=O)(O)O)C1 (stereo not drawn)
2. Cc1cc(Cc2cc(C)c(NC(=O)C(=O)C3C(=O)NC(=S)NC3=O)c(C(C)C)c2)cc(C(C)C)c1NC(=O)C(=O)C1C(=O)NC(=S)NC1=O
3. Cc1c(-c2cnccn2)ssc1=S

Output:
1. > 100 µM (inactive)
2. > 100 µM (inactive)
3. 88.5 µM (inactive)

====

Test system: SW-620
Test: NCI tumour cell line growth inhibition, 48 h
Calls of active or inactive are those of the source. No stated cut-off is given here; in the data, active = GI50 up to about 1.1 µM and inactive = higher.
Allowed answers: true (1) (active), false (0) (inactive)

Task: Recorded test call requested for COC(=O)C1C(C(=O)OC)C2C(=O)C3C(C(=O)OC)C(C(=O)OC)C3C(=O)C12 (stereo not drawn)
Output: false (0)
